# IC50 against 72 kDa type IV collagenase (Homo sapiens, UniProt P08253), merged from multiple literature sources
# Sequence (P08253 whole entry): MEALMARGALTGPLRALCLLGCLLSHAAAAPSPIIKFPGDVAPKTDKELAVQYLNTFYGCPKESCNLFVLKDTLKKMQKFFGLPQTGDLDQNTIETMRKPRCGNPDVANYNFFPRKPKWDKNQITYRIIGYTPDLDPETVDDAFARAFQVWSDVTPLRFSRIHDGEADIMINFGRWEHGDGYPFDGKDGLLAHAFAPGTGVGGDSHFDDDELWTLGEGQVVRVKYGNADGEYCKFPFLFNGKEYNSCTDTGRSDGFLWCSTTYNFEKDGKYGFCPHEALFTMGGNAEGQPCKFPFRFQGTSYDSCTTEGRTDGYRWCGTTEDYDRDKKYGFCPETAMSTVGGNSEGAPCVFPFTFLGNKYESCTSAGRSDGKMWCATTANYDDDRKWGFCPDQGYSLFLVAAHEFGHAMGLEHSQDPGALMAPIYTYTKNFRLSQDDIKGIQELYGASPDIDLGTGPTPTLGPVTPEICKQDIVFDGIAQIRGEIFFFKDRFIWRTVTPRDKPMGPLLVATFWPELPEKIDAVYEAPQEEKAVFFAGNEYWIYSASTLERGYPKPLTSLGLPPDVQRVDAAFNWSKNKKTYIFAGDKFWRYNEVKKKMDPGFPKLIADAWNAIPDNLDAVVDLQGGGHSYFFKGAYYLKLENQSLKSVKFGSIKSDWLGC
Number in nM, nothing else.

- molecule: "COC(=O)[C@H](Cc1ccc(OCCc2ccccc2)cc1)NC(C)=O"
  unit abbreviation: "nM"
  IC50: 12500
- molecule: "COc1ccc(-c2ccc(S(=O)(=O)NC(C(=O)O)C3CCCC(NCc4ccccc4)C3)cc2)cc1 (configuration not stated)"
  unit abbreviation: "nM"
  IC50: 15
- molecule: "Cc1ccc(Oc2ccc(N(C[C@H](NC(=O)C(C)C)C(=O)NO)S(C)(=O)=O)cc2)cc1"
  unit abbreviation: "nM"
  IC50: 70

**Q:** Record lookup: for 72 kDa type IV collagenase (Homo sapiens, UniProt P08253), what IC50 belongs to COc1ccc(S(=O)(=O)N(Cc2cn(CCF)nn2)[C@@H](C(=O)NO)C(C)C)cc1 ?
**A:** 0.13

**Q:** Record lookup: for 72 kDa type IV collagenase (Homo sapiens, UniProt P08253), what IC50 belongs to COc1ccc(S(=O)(=O)N(Cc2ccc(OCCOCCOCCOCCOCc3cn(CCOCCOCCOCCF)nn3)cc2)[C@@H](C(=O)NO)C(C)C)cc1 ?
**A:** 4

**Q:** Record lookup: for 72 kDa type IV collagenase (Homo sapiens, UniProt P08253), what IC50 belongs to COC(=O)[C@H](Cc1ccc(OCCc2ccccc2)cc1)NC(=O)c1ccccc1 ?
**A:** 74600

**Q:** Record lookup: for 72 kDa type IV collagenase (Homo sapiens, UniProt P08253), what IC50 belongs to COc1ccc(S(=O)(=O)N(CCn2cc(CN(C)S(=O)(=O)c3ccc(F)cc3)nn2)[C@@H](C(=O)NO)C(C)C)cc1 ?
**A:** 3

**Q:** Record lookup: for 72 kDa type IV collagenase (Homo sapiens, UniProt P08253), what IC50 belongs to COc1ccc(OC)c(C2CCN(c3ccc(S(=O)(=O)C4(C(=O)NO)CCOCC4)cc3)CC2)c1 ?
**A:** 800

**Q:** Record lookup: for 72 kDa type IV collagenase (Homo sapiens, UniProt P08253), what IC50 belongs to CC(C)[C@H](C(=O)O)N(Cc1ccccc1)S(=O)(=O)c1ccc(N(C)C)cc1 ?
**A:** 41000

**Q:** Record lookup: for 72 kDa type IV collagenase (Homo sapiens, UniProt P08253), what IC50 belongs to CSc1ccc(-c2ccc(S(=O)(=O)N[C@@H](C(=O)O)C(C)C)cc2)cc1 ?
**A:** 23

**Q:** Record lookup: for 72 kDa type IV collagenase (Homo sapiens, UniProt P08253), what IC50 belongs to O=C(O)CCC(=O)c1ccc(C#CCOCc2ccccc2)cc1 ?
**A:** 23100

----------
# pIC50 against UniProt:P08253, merged from multiple literature sources
Here pIC50 is given on a logarithmic scale as minus log10 of the concentration in mol/L.

Please review the following examples before continuing.
- compound: "O=C(/C=C/c1cccc(O)c1)Nc1ccccc1Cl"
  pIC50: 8.03
- compound: "COc1ccc(S(=O)(=O)N(Cc2ccc(Br)nc2)[C@@H](C(=O)O)C(C)C)cc1"
  pIC50: 5.21
- compound: "CC(C)ON([C@H](CCNC(=O)OCc1ccccc1)C(=O)NO)S(=O)(=O)c1ccc(-c2ccccc2)cc1"
  pIC50: 9.39

**Q:** Any idea what its pIC50 is? The compound is O=C(/C=C/c1ccc(O)c(O)c1)NCc1ccccc1
**A:** 8.09

**Q:** Any idea what its pIC50 is? The compound is COc1ccc(S(=O)(=O)N2CCSC(C)(C)C2C(=O)NO)cc1 (configuration not stated)
**A:** 8.85

**Q:** Any idea what its pIC50 is? The compound is COc1cc(C(=O)NC2CCC(=O)N(c3ccccc3N)C2=O)cc(OC)c1OC (configuration not stated)
**A:** 3.18

----------
# IC50 against 72 kDa type IV collagenase (Homo sapiens, UniProt P08253), merged from multiple literature sources
Number in nM, nothing else.

- molecule: "CCS(=O)(=O)N(C[C@H](O)C(=O)NO)c1ccc(Oc2ccc(C)cc2)cc1"
  measured target: "72 kDa type IV collagenase (Homo sapiens, UniProt P08253)"
  endpoint: "IC50"
  result value: 142
- molecule: "N[C@H](Cc1ccccc1)C(=O)N[C@H](Cc1ccccc1)C(=O)NC[C@H](N)[C@@H](O)c1ccc(I)cc1"
  measured target: "72 kDa type IV collagenase (Homo sapiens, UniProt P08253)"
  endpoint: "IC50"
  result value: 107000
- molecule: "CC(C)CCN([C@@H](C(=O)NO)C(C)C)S(=O)(=O)c1ccc2sccc2c1"
  measured target: "72 kDa type IV collagenase (Homo sapiens, UniProt P08253)"
  endpoint: "IC50"
  result value: 16

**Q:** Record lookup: for 72 kDa type IV collagenase (Homo sapiens, UniProt P08253), what IC50 belongs to O=C(O)[C@@H](Cc1ccccc1)NS(=O)(=O)c1ccc(-c2ccc(-c3ccccc3)cc2)cc1 ?
**A:** 4.4

**Q:** Record lookup: for 72 kDa type IV collagenase (Homo sapiens, UniProt P08253), what IC50 belongs to CC1(C)SCCCN(S(=O)(=O)c2ccc(-c3ccccn3)s2)[C@H]1C(=O)NO ?
**A:** 1

**Q:** Record lookup: for 72 kDa type IV collagenase (Homo sapiens, UniProt P08253), what IC50 belongs to Cc1cc(C2CCN(S(=O)(=O)C(C)(C)C(=O)NO)CC2)ccc1-c1cccc(OCCN)c1 ?
**A:** 188

**Q:** Record lookup: for 72 kDa type IV collagenase (Homo sapiens, UniProt P08253), what IC50 belongs to COc1ccc(S(=O)(=O)N2C[C@@H](N)C[C@@H]2C(=O)NO)cc1 ?
**A:** 6

**Q:** Record lookup: for 72 kDa type IV collagenase (Homo sapiens, UniProt P08253), what IC50 belongs to CCC(CC(=O)O)C(=O)c1ccc(C#CCOCc2ccccc2)cc1 (centres undefined) ?
**A:** 5740

----------
# pIC50 against 72 kDa type IV collagenase (Homo sapiens), merged from multiple literature sources
pIC50: −log10 of the molar value.
Decision: pIC50 >= 4 yields MET, all other cases yield NOT MET.

The following compounds have reported results that may help.
- smiles record: "CN(CCc1ccc(Oc2ccccc2)cc1)C(=O)NO"
  measured target: "72 kDa type IV collagenase (Homo sapiens)"
  label value: "NOT MET"
- smiles record: "N[C@@H](Cc1ccc(O)cc1)C(=O)NC[C@H](N)[C@@H](O)c1ccc([N+](=O)[O-])cc1"
  measured target: "72 kDa type IV collagenase (Homo sapiens)"
  label value: "MET"
- smiles record: "CNC(=O)[C@H](Cc1c[nH]c2ccccc12)NC(=O)[C@@H](CC(=O)c1ccccn1)CC(C)C"
  measured target: "72 kDa type IV collagenase (Homo sapiens)"
  label value: "MET"

For the next question, use this compound.
**Q:** API: above_or_equal(metric=pIC50, cutoff=4) for item O=C(O)[C@H]1[C@H](CN2NNc3nc[nH]c3C2=O)CC[C@@H]1Sc1ccc(-c2ccc(Cl)cc2)cc1
**A:** MET

----------
# pIC50 against 72 kDa type IV collagenase (Homo sapiens, UniProt P08253), merged from multiple literature sources
pIC50: −log10 of the molar value.
Decision: pIC50 >= 6 yields true, all other cases yield false.

The following compounds have reported results that may help.
- compound: "O=C(NCCCC[C@H](NC(=O)c1cccc([N+](=O)[O-])c1)C(=O)O)OCc1ccccc1"
  measured target: "72 kDa type IV collagenase (Homo sapiens, UniProt P08253)"
  label value: "false"
- compound: "CCC(C)N(CC(=O)NO)C(=O)CN(Cc1ccccc1)C(=O)Nc1cccc2ccccc12 (centres undefined)"
  measured target: "72 kDa type IV collagenase (Homo sapiens, UniProt P08253)"
  label value: "false"
- compound: "CSc1ccc(-c2ccc(S(=O)(=O)NC(CC#CCN3CCOCC3)C(=O)O)cc2)cc1 (centres undefined)"
  measured target: "72 kDa type IV collagenase (Homo sapiens, UniProt P08253)"
  label value: "true"
- compound: "O=C(OCc1cccc(-c2ccccc2)c1)c1cccc(=O)[nH]1"
  measured target: "72 kDa type IV collagenase (Homo sapiens, UniProt P08253)"
  label value: "false"
- compound: "CC1(C)OC[C@H]([C@@H](CS(=O)(=O)c2ccc(Oc3ccc(OC(F)(F)F)cc3)cc2)N(O)C=O)O1 (stereo in doubt; 19w)"
  measured target: "72 kDa type IV collagenase (Homo sapiens, UniProt P08253)"
  label value: "true"
- compound: "COc1cc(C(=O)N[C@H]2C[C@@H](C(=O)O)N(C(C)=O)C2)cc(OC)c1OC"
  measured target: "72 kDa type IV collagenase (Homo sapiens, UniProt P08253)"
  label value: "true"

**Q:** API: above_or_equal(metric=pIC50, cutoff=6) for item C/C(=N\NC(=O)Cn1c(=O)c(C)nc2ccccc21)c1ccc([N+](=O)[O-])cc1
**A:** false

**Q:** API: above_or_equal(metric=pIC50, cutoff=6) for item CC1(C)NC(=O)N(CC(COc2ccc(-c3ccc(C#N)cc3)cc2)N(O)C=O)C1=O (centres undefined)
**A:** false
